Experimental protocol: Tanguay_ZF_120hpf_CFIN_legacy: (Legacy) Oregon State University Tanguay Lab 120 Hour Post-fertilization zebrafish Assay for Caudal Fin Malformation (AID 2283649)
Records with an inconclusive call do not appear. The source made the active and inactive calls. How the source made its calls: active means hit-call score of the fitted dose curve at least 0.9, where 1 is the maximum; inconclusive means response in the unintended direction; inactive means score below 0.9.
Classes used: active, inactive

molecule=CON(C)C(=O)Nc1ccc(Cl)c(Cl)c1 group=inactive
molecule=CS/C(C)=N/OC(=O)N(C)SN(C)C(=O)O/N=C(\C)SC group=inactive
molecule=COc1nc(NC(C)C)nc(NC(C)C)n1 group=inactive
molecule=COc1ccc(C(c2ccc(OC)cc2)C(Cl)(Cl)Cl)cc1 group=inactive
molecule="CCON=C(CC)C1=C(O)CC(c2c(C)cc(C)cc2C)CC1=O (configuration not stated)" group=inactive
molecule="C=CCC1=C(C)C(OC(=O)C2C(C=C(C)C)C2(C)C)CC1=O (configuration not stated)" group=inactive
molecule=O=C(Nc1ccccc1)Nc1ccnc(Cl)c1 group=inactive
molecule=CCOc1cc(Oc2ccc(C(F)(F)F)cc2Cl)ccc1[N+](=O)[O-] group=inactive
molecule=COC(=O)c1ccccc1C(=O)OC group=inactive
molecule=CCCCNC(=O)OCC#CI group=inactive
molecule="CCOC(=O)CC(SP(=S)(OC)OC)C(=O)OCC (configuration not stated)" group=active
molecule="COC(=O)C(C)Oc1ccc(Oc2ccc(Cl)cc2Cl)cc1 (configuration not stated)" group=inactive
molecule="N#Cc1nn(-c2c(Cl)cc(C(F)(F)F)cc2Cl)c(N)c1S(=O)C(F)(F)F (configuration not stated)" group=inactive
molecule=COc1cnc(OC)n2nc(NS(=O)(=O)c3c(OCC(F)F)cccc3C(F)(F)F)nc12 group=inactive
molecule=CC(C)(C)c1ccc(CSc2cnn(C(C)(C)C)c(=O)c2Cl)cc1 group=inactive
molecule=CN(C)C(=S)SSC(=S)N(C)C group=inactive
molecule=CCCCNC(=O)n1c(NC(=O)OC)nc2ccccc21 group=inactive
molecule=O=C(O)c1nc(Cl)ccc1Cl group=inactive
molecule=CC(C)Oc1cc(-n2nc(C(C)(C)C)oc2=O)c(Cl)cc1Cl group=inactive
molecule="COP(N)(=O)SC (configuration not stated)" group=inactive
molecule=CNC(=O)ON=CC(C)(C)SC group=inactive
molecule=COC(=O)N(OC)c1ccccc1COc1ccn(-c2ccc(Cl)cc2)n1 group=inactive
molecule=CNC(=S)S group=inactive
molecule=CCNc1nc(Cl)nc(NCC)n1 group=inactive
molecule="CCCCC(CC)COC(=O)c1ccccc1C(=O)OCC(CC)CCCC (configuration not stated)" group=inactive
molecule=COP(=S)(OC)Oc1nc(Cl)c(Cl)cc1Cl group=inactive
molecule=COC(=O)C=C(C)OP(=O)(OC)OC group=inactive

* * *

Experimental protocol: IUF_NPC2-5_viability_120hr: Viability Assessment at 120 hours in the Leibniz Research Institute for Environmental Medicine (IUF) Neural Progenitor Cell Migration and Differentiation Assay (NPC2-5) (AID 2284312)
Active and inactive are the calls of the source. How the source made its calls: active means hit-call score of the fitted dose curve at least 0.9, where 1 is the maximum; inactive means score below 0.9.
Classes used: active, inactive

compound=CCOc1cc(Oc2ccc(C(F)(F)F)cc2Cl)ccc1[N+](=O)[O-] group=inactive
compound=COP(=S)(OC)Oc1nc(Cl)c(Cl)cc1Cl group=inactive
compound=CCCCOC(=O)c1ccccc1C(=O)OCCCC group=inactive
compound=CNC(=O)ON=CC(C)(C)SC group=inactive
compound="CCCCC(CC)COC(=O)c1ccccc1C(=O)OCC(CC)CCCC (stereo not given)" group=inactive
compound=Cc1ccc(-c2c(Cl)nc(C#N)n2S(=O)(=O)N(C)C)cc1 group=active
compound=CC(C)(C)c1ccc(CSc2cnn(C(C)(C)C)c(=O)c2Cl)cc1 group=inactive
compound=CO/C=C(/C(=O)OC)c1ccccc1Oc1cc(Oc2ccccc2C#N)ncn1 group=inactive
compound="C=CC1(C)OC(=O)N(c2cc(Cl)cc(Cl)c2)C1=O (stereo not given)" group=inactive
compound=COC(=O)N(OC)c1ccccc1COc1ccn(-c2ccc(Cl)cc2)n1 group=active
